B1: Peroxisome proliferator-activated receptor delta, residues 71 to 145; numbered along this chain, Q03181 (parent)
chain: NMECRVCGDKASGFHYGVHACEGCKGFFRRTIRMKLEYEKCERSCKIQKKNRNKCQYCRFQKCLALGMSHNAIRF

variants of: B1; assay: abundance fitness (aPCA) (normalised: wild type 0, dead -1); higher = more abundant; growth selection in yeast, the domain comes from the species named; conditions: Homo sapiens
measure.name: abundance fitness
// response body must contain only the number

Dear colleague, I am looking for the recorded abundance fitness of the following variant: `C45T`
-1

Would you kindly share the measured abundance fitness for `R43F` ?
0.082

# abundance fitness lookup, item `N1W`
-0.593

Reported abundance fitness for `N53S` : what is it?
-0.005

I have this variant here, `K46F` , and I need its recorded abundance fitness.
0.015

Item `A65W` has what recorded abundance fitness?
-0.231

Which abundance fitness is listed for `F60Y` ?
-0.223

# query: abundance fitness of entry `S69H`
-0.045

For `R29K` , what is its reported abundance fitness?
0.026

Look at this variant and give its reported abundance fitness. `N71R`
-0.242

Form field: reported abundance fitness of `F14D`
0.014

Requested field: abundance fitness. Item: `K35E`
0.063

Suppose we examine the variant `F28E` ; what abundance fitness value has been reported?
-0.667

Data request, read-out abundance fitness, for `A20P`
-0.792

abundance fitness for `R43H` ?
-0.07

So what's the measured abundance fitness for this one? `K35A`
-0.054

Can you look up the measured abundance fitness of `C63E` for me?
-0.689

For `E42I` , what is its reported abundance fitness?
-0.304

Recorded abundance fitness for `R29W` , please?
0.164

Would you mind telling me what abundance fitness value was observed for `M2K` ?
-0.249

I would be grateful if you could share the reported abundance fitness for `N1Q` .
-0.218

Given `H70M` , state its recorded abundance fitness.
0.09

// provenance: the Human Domainome abundance scans (Beltran et al. 2025)
